# assay comment: Stability in normal mouse serum at 37 °C, radio-TLC (Experimental Example 2)
# Type: in vitro ADME
# experimental conditions: after 5 h, read-out: radiochemical purity in mouse serum
measurement kind: remaining at 5 h

- [N-]=[N+]=NCCOCCOCCOCCNC(=O)c1ccc([125I])cc1: ≥ 95%

====

# assay comment: Biodistribution in ICR mice after intravenous injection, gamma counter (Experimental Example 3)
# Assay type: in vivo
# experimental conditions: liver and kidney, iv, 1 uCi/animal; within 2 h; ICR male mice, i.v., 1 μCi/100 μL per mouse; read-out: concentration (liver and kidney)
measurement kind: tissue uptake at 2 h

- [N-]=[N+]=NCCOCCOCCOCCNC(=O)c1ccc([125I])cc1: ≤ 10 %ID/g
